Source listed as patent US20060079453A1.

# STUDY_SYSTEM: HLA-DR DRB5*0101 (DR51) (Homo sapiens, UniProt P01903+Q30154)
# EXPERIMENT: biochemical
# Format: binding
# CONDITION_DETAILS: DRB5 *0101
pIC50: −log10 of the molar value. No end group written: not given here.
METRIC: pIC50

Known pIC50 results, listed for orientation:
1. VLFLQMMNVNLQKQL | < 5.14
2. DIRILQELLMGSFGI | < 4.26

Which pIC50 value belongs to `YLVTGERGFFYTDKT` ? < 4.55

Which pIC50 value belongs to `DIAAKYKELGY` ? ≤ 3.70

Which pIC50 value belongs to `KLQTYPRTNTGSGTP` ? < 4.85

Which pIC50 value belongs to `GNEIFNTSLFEPPPP` ? < 3.70

Which pIC50 value belongs to `TLRLCVQSTHVDIRT` ? < 4.64

Which pIC50 value belongs to `FPDWQNYTPGPGTRF` ? < 4.69

Which pIC50 value belongs to `QLAFDTYQEFEQNPQ` ? < 5.02
